# Read-out: Plasminogen activator inhibitor-1 (PAI1), SERPINE1 (gene 5054)
# assay notes: BSK_BE3C_PAI1: BioMAP Diversity Plus: BE3C Assay for Plasminogen activator inhibitor-1 (PAI1) Biomarker Activity (AID 2283037)
# assay setup: primary human bronchial epithelial cells; actives raise or lower the signal
The source made the active and inactive calls. How the source made its calls: active means hit-call score of the fitted dose curve at least 0.9, where 1 is the maximum; inactive means score below 0.9.
Response enum: active, inactive

Below, 4 compounds whose answers are already recorded.
> print(dat)
                                   compound  assigned.category
1              O=[N+]([O-])c1ccc(Cl)c(Cl)c1           inactive
2              CCOP(=S)(OCC)SCSc1ccc(Cl)cc1           inactive
3                            [N-]=[N+]=[N-]           inactive
4  Cc1c([N+](=O)[O-])cc2c(c1[N+](=O)[O-])C(C)(C)CC2(C)C             active

Look up the recorded call for CCCCN(CCCC)N=O in this test.
inactive
